Please provide measured pIC50 for the entries that follow.
# Test system: HEK293
# protocol: Cytotoxicity against HEK293 cells assessed as reduction in cell viability measured after 48 hrs by MTT assay
# Type: toxicity, cell-based, Homo sapiens
Worth noting: pIC50 values are minus log10 of concentrations stated in mol/L.

Looking up CCCCN(C(=O)Nc1c(-c2ccc(Oc3ccccc3)cc2)csc1C(=O)O)c1ccccc1 , I see its pIC50 listed as 4.59

// pIC50 lookup, compound = CCCCN(C(=O)Nc1cc(-c2ccc(Cl)c(Cl)c2)sc1C(=O)O)c1ccccc1 , result: 4.28

====

# target: UniProt A0A510WMC0
# Sequence (whole entry): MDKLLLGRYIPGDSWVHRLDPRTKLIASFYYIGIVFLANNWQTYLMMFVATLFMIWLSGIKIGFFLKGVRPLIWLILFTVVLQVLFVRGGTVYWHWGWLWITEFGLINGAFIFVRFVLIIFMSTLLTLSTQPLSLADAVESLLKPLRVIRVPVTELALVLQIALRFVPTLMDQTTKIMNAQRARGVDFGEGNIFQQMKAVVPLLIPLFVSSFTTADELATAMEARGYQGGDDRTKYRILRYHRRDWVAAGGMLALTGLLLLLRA
# protocol: Inhibition of Lactobacillus casei ECF-FolT assessed as inhibition of radiolabelled folic acid uptake at 50 uM pre-incubated for 10 mins followed tritium labeled folic acid addition measured after 30 mins by liquid scintillation analysis relative to control
# measurement-context: Lacticaseibacillus casei, time 40.0 min
quantity-kind: inhibition (%)
# value in %; strip the unit string

Notebook: CC(C)NC(=O)Nc1cc(-c2ccc(Cl)c(Cl)c2)sc1C(=O)O , inhibition read as 39.3

// field: inhibition; key: CCCCN(C(=O)Nc1cc(-c2ccc(Cl)c(Cl)c2)sc1C(=O)O)c1ccccc1 ; value = 99.6

Entry under test: NC(=O)Nc1cc(-c2ccc(Cl)c(Cl)c2)sc1C(=O)O . Its inhibition was 42.4

Briefly, inhibition measured for CCCCN(C(=O)Nc1c(-c2ccc(Oc3ccccc3)cc2)csc1C(=O)O)c1ccccc1 : 100

Entry CCN(Cc1ccccc1)C(=O)Nc1cc(-c2ccc(Br)cc2)sc1C(=O)O — recorded inhibition = 52.3

Form: molecule = CCN(Cc1ccccc1)C(=O)Nc1cc(-c2cc(Cl)cc(Cl)c2)sc1C(=O)O ; inhibition = 22

// recorded inhibition for CCCCCCNC(=O)Nc1cc(-c2ccc(Cl)cc2Cl)sc1C(=O)O : 67.9

So for O=C(NCc1ccncc1)Nc1cc(-c2ccc(Cl)c(Cl)c2)sc1C(=O)O , the logged inhibition turned out to be 54

Query CCN(C(=O)Nc1cc(-c2ccc(Cl)c(Cl)c2)sc1C(=O)O)c1ccccc1 yields inhibition of 83.2

So, CCN(Cc1ccccc1)C(=O)Nc1cc(-c2ccc(C#N)cc2)sc1C(=O)O ? Its inhibition was 18.3

====

# Test system: HepG2
# protocol: Cytotoxicity against human HepG2 cells assessed as reduction in cell viability measured after 48 hrs by MTT assay
# Format: toxicity, cell-based
quantity-kind: IC50 (µM)
Return type: number; implicit unit µM.

Note to self: IC50 recorded for CCCCN(C(=O)Nc1cc(-c2ccc(Cl)c(Cl)c2)sc1C(=O)O)c1ccccc1 was 95.6

GET /value?item= CCCCN(C(=O)Nc1c(-c2ccc(Oc3ccccc3)cc2)csc1C(=O)O)c1ccccc1 &field=IC50 returns 57

====

# protocol: Kinetic solubility of the compound
# Assay type: physicochemical
# measurement-context: read-out: Kinetic_solubility
quantity-kind: solubility kinetic (µM)
Entry rule: numbers only, all in µM.

Entry CCCCN(C(=O)Nc1cc(-c2ccc(Cl)c(Cl)c2)sc1C(=O)O)c1ccccc1 , solubility kinetic reported as 107

====

# target: Energy-coupling factor transporter transmembrane protein EcfT (Lactobacillus casei)
# protocol: Inhibition of Lactobacillus casei ECF-FolT assessed as inhibition of radiolabelled folic acid uptake at 50 uM pre-incubated for 10 mins followed tritium labeled folic acid addition measured after 30 mins by liquid scintillation analysis relative to control
# measurement-context: Lacticaseibacillus casei, time 40.0 min
So I've got a bunch of molecules here, and I need their inhibition values.
Could you give me the number in %? Just the number is fine.

Record summary for CCCCCCNC(=O)Nc1cc(-c2cccc(Cl)c2)sc1C(=O)O : reported inhibition = 36.2

Noted for CCN(Cc1ccccc1)C(=O)Nc1cc(-c2ccc(Cl)c(Cl)c2)sc1C(=O)O : its inhibition reads 89.4

inhibition in this record for CCCCN(CCc1ccccc1)C(=O)Nc1cc(-c2ccc(Cl)c(Cl)c2)sc1C(=O)O : 57.8

Reported inhibition for CCCCCCNC(=O)Nc1cc(-c2cccc([N+](=O)[O-])c2)sc1C(=O)O was 65.3

Per the records, this molecule ( CCCCCCNC(=O)Nc1cc(-c2ccc(C(F)(F)F)cc2)sc1C(=O)O ) has inhibition equal to 27.1

The reported value for CCCCCCNC(=O)Nc1cc(-c2ccccc2)sc1C(=O)O in terms of inhibition is 25.1

Query O=C(Nc1ccccc1)Nc1cc(-c2ccc(Cl)c(Cl)c2)sc1C(=O)O yields inhibition of 86.8

Quick note, inhibition for O=C(NCc1cccnc1)Nc1cc(-c2ccc(Cl)c(Cl)c2)sc1C(=O)O landed at 58

Reported inhibition for CCCCCCNC(=O)Nc1cc(-c2ccc(Cl)c(C(F)(F)F)c2)sc1C(=O)O was 59

The reported inhibition of the molecule CCCCCCNC(=O)Nc1cc(-c2cc(Cl)ccc2Cl)sc1C(=O)O was 93.4

Record O=C(O)c1sc(-c2ccc(Cl)c(Cl)c2)cc1NC(=O)N(Cc1ccccc1)c1ccccc1 . Reported inhibition: 91.3

inhibition recorded for this molecule, CCN(Cc1ccccc1)C(=O)Nc1cc(-c2ccc(Oc3ccccc3)cc2)sc1C(=O)O , is 97

// sample CCCCCCNC(=O)Nc1sc(-c2ccc(Cl)c(Cl)c2)cc1C(=O)O , its inhibition was 17.9

Sample CCCCCCNC(=O)Nc1c(-c2ccc(Cl)c(Cl)c2)csc1C(=O)O ; inhibition observed: 90.6

Note to self: inhibition recorded for O=C(O)c1sc(-c2ccc(Cl)c(Cl)c2)cc1NC(=O)N(Cc1ccccc1)Cc1ccccc1 was 85.1

Memo: CCCCN(Cc1ccccc1)C(=O)Nc1cc(-c2ccc(Cl)c(Cl)c2)sc1C(=O)O , reported inhibition: 42.5

inhibition measured on CCCCCCNc1c(-c2ccc(Cl)c(Cl)c2)csc1C(=O)O = 95.2

====

# target: UniProtKB A0A510WMC0
# protocol: Inhibition of Lactobacillus casei ECF-FolT assessed as inhibition of radiolabelled folic acid uptake at 50 uM pre-incubated for 10 mins followed tritium labeled folic acid addition measured after 30 mins by liquid scintillation analysis relative to control
# measurement-context: Lacticaseibacillus casei, time 40.0 min
quantity-kind: inhibition (%)
Numeric answer only, unit % assumed.

Record COc1ccc(CNC(=O)Nc2cc(-c3ccc(Cl)c(Cl)c3)sc2C(=O)O)cc1 , field inhibition: 54.3

Input CCCCCCNC(=O)Nc1cc(-c2ccc(OC)cc2)sc1C(=O)O . Output inhibition: 12.1

Lab note: measured inhibition of CN(C(=O)Nc1cc(-c2ccc(Cl)c(Cl)c2)sc1C(=O)O)c1ccccc1 was 71.5

Field inhibition (entry O=C(O)CCCNC(=O)Nc1cc(-c2ccc(Cl)c(Cl)c2)sc1C(=O)O ) reads 0.2

Note to self: inhibition recorded for O=C(NCc1ccccn1)Nc1cc(-c2ccc(Cl)c(Cl)c2)sc1C(=O)O was 59

Memo: CCCCCCNC(=O)Nc1cc(-c2ccc(Cl)c(Cl)c2)sc1C(=O)O , reported inhibition: 72.2

The value of inhibition measured for the compound CCCCCCNC(=O)Nc1cc(-c2cccc(C(F)(F)F)c2)sc1C(=O)O turned out to be 52.3

The compound listed as O=C(NCCc1ccccc1)Nc1cc(-c2ccc(Cl)c(Cl)c2)sc1C(=O)O shows inhibition equal to 91.7

Sample CCN(Cc1ccccc1)C(=O)Nc1cc(-c2ccc(C)cc2)sc1C(=O)O ; inhibition observed: 38.9

====

# target: Energy-coupling factor transporter transmembrane protein EcfT (Lactobacillus casei)
# protocol: Inhibition of Lactobacillus casei ECF-FolT assessed as inhibition of radiolabelled folic acid uptake at 50 uM pre-incubated for 10 mins followed tritium labeled folic acid addition measured after 30 mins by liquid scintillation analysis relative to control
# measurement-context: Lacticaseibacillus casei, time 40.0 min
Think of 70% as a floor: if inhibition stands on it or above, it is yes (1); beneath it, no (0).

Quick check, inhibition >= 70%? CCCCCCNC(=O)Nc1scc(-c2ccc(Cl)c(Cl)c2)c1C(=O)O
yes (1)

For this compound, is measured inhibition 70% or higher? CCCCCCNC(=O)Nc1cc(-c2ccc([N+](=O)[O-])cc2)sc1C(=O)O
yes (1)

Could you tell me if the measured inhibition of CCCCNC(=O)Nc1cc(-c2ccc(Cl)c(Cl)c2)sc1C(=O)O reaches 70% or more?
no (0)

For this compound, is measured inhibition 70% or higher? CCCCCCNC(=O)Nc1c(C(=O)O)cccc1-c1ccc(Cl)c(Cl)c1
no (0)

In plain terms: is recorded inhibition at least 70% for CCCCCCNC(=O)Nc1cc(-c2ccc(Cl)cc2)sc1C(=O)O ?
no (0)

Answer whether inhibition of CCN(Cc1ccccc1)C(=O)Nc1cc(-c2ccc(OC(F)(F)F)cc2)sc1C(=O)O is greater than or equal to 70%.
no (0)

Check the entry CN(Cc1ccccc1)C(=O)Nc1cc(-c2ccc(Cl)c(Cl)c2)sc1C(=O)O : does inhibition equal or exceed 70%?
yes (1)

Quick check, inhibition >= 70%? CCCCN(C(=O)Nc1c(-c2cc(Cl)ccc2Cl)csc1C(=O)O)c1ccccc1
yes (1)

I'd appreciate it if you could say whether CCCCC(=O)Nc1c(-c2ccc(Cl)c(Cl)c2)csc1C(=O)O has inhibition at least equal to 70%.
no (0)

Hello, the source for this data is ChEMBL document CHEMBL5131565, in case you need it.
